# System: PC-3
# ASSAY_NOTES: NCI tumour cell line growth inhibition, 48 h
Calls of active or inactive are those of the source. Cut-off read from the data, not from the text of the source: active = GI50 up to about 1.1 µM and inactive = higher.
Please answer using one outcome listed in 1 (yes) = active, 0 (no) = inactive

A selection of reference data follows.
CC(CC(=O)O)(CC(=O)O)c1ccccc1; 0 (no)
CCOC(=O)c1c(N)sc2c1C(C(=O)OCC)CC2 (stereo unspecified); 0 (no)
CC(C)CNc1nc(N)nc(O)c1NC=O; 0 (no)
C/C=C/C(C#N)(/C=C/c1ccccc1)OP1(=O)OC(c2ccccc2)C(C)N1C (stereo unspecified); 0 (no)
Cc1cc2c(c3oc(C(O)(CO)C4CO4)cc(=O)c13)C(=O)c1c(O)cccc1C2=O (stereo unspecified); 1 (yes)
N#CC(=S)Nc1ccc(Cl)c(Cl)c1; 0 (no)
COc1ccc(C2c3cc4c(cc3OC(NCCO)C2C)OCO4)cc1 (stereo unspecified); 0 (no)
CCOC(=O)CCC(NC(=O)c1ccc(Nc2nc3ccccc3nc2-c2cccs2)cc1)C(=O)OCC (stereo unspecified); 0 (no)
CN1C/C(=C\c2ccc(Cl)cc2)C(=O)/C(=C/c2ccc(Cl)cc2)C1; 0 (no)
Nc1ncnc2c(C3OC(CO)C(O)C3O)c[nH]c12 (stereo unspecified); 1 (yes)

Then this molecule:
Exercise: Called result for Cc1ccc(S(=O)(=O)n2c3c(c4ccccc42)CCN2C[C@H]([C@H](C)Br)CC[C@@H]32)cc1
Solution: 0 (no)

---

# Tested on: K562
# ASSAY_NOTES: NCI tumour cell line growth inhibition, 48 h
The source made the active and inactive calls. Rule as the data show it: active = GI50 up to about 1.1 µM and inactive = higher.
ASSAY_READOUT: GI50

Examples with answers:
C=C1C(=O)C([Si](C)(C)C)=C2C=C(C)C3(CC3)C12C (stereo not given); 19.1 µM (inactive)
COC(=O)CCC(=O)N1C/C(=C\c2ccccc2)C(=O)/C(=C/c2ccccc2)C1; 1.43 µM (inactive)

So for CCCCN(C(=O)c1ccccc1)C1CCC(=O)c2[nH]c3ccccc3c21 (stereo not given) , the logged GI50 turned out to be 49.7 µM (inactive)

So for CCOC(=O)c1c(N)sc2c1C(C(=O)OCC)CC2 (stereo not given) , the logged GI50 turned out to be 46.5 µM (inactive)

---

# Test system: SNB-19
# ASSAY_NOTES: NCI tumour cell line growth inhibition, 48 h
Activity calls are given as the source filed them. Cut-off read from the data, not from the text of the source: active = GI50 up to about 1.1 µM and inactive = higher.
Please answer using one outcome listed in t for active, f for inactive

A selection of reference data follows.
Cc1cccc2nc3cc(O)cc(O)c3c(O)c12; f
COc1cc(C(C)O)c[n+](CCc2c[nH]c3ccccc23)c1 (configuration not stated); f

Exercise: Called result for OCC(O)C(O)C(O)C(O)c1nc2cc(Cl)ccc2[nH]1 (configuration not stated)
Solution: f

Exercise: Called result for N[C@H](C(=O)O)[C@@H]1CC(Br)=NO1
Solution: f

Exercise: Called result for OC(O)(C(F)(F)F)C(F)(F)F
Solution: f

---

# System: HCC 2998
# ASSAY_NOTES: NCI tumour cell line growth inhibition, 48 h
Activity calls are given as the source filed them. Rule as the data show it: active = GI50 up to about 1.1 µM and inactive = higher.
ASSAY_READOUT: GI50

CC(=O)OC12c3ccccc3C(c3ccccc31)C1C(=O)N(c3ccccc3O)C(=O)C12 (configuration not stated); > 100 µM (inactive)
COC1OC(CO)C(O)C(OC(C)=O)C1NC(=O)N(CCCl)N=O (configuration not stated); > 100 µM (inactive)
N#CC1=C(O)NC(O)=C(C#N)C1c1c(Cl)cccc1Cl; 7.93 µM (inactive)

Summary: Cc1cc2oc(=O)c(Cl)c(Cl)c2c(C)c1Cl , HCC 2998, GI50 = 5.51 µM (inactive)

---

# Tested on: SF-539
# ASSAY_NOTES: NCI tumour cell line growth inhibition, 48 h
Calls of active or inactive are those of the source. Cut-off read from the data, not from the text of the source: active = GI50 up to about 1.1 µM and inactive = higher.
Please answer using one outcome listed in T = active, F = inactive

A selection of reference data follows.
Cc1ccc(S(=O)(=O)n2c3c(c4ccccc42)CCN2C[C@H]([C@H](C)Br)CC[C@@H]32)cc1; F
CC(=O)OC(/C=C/c1ccccc1)=C(OC(C)C)/C1=C(\c2ccccc2)SCCCSC1=O; F

Exercise: Called result for C[N+]1([O-])C2CCC1CC(OC(=O)C(CO)c1ccccc1)C2 (stereo not drawn)
Solution: F

Exercise: Called result for Cc1ncc([N+](=O)[O-])n1CCN(C)CCCCn1ccnc1[N+](=O)[O-]
Solution: F

Exercise: Called result for Nc1ncnc2c(C3OC(CO)C(O)C3O)c[nH]c12 (stereo not drawn)
Solution: T

Exercise: Called result for COc1ccc(C2C3=C(COC3=O)Oc3cc4c(cc32)OCO4)c(OC)c1 (stereo not drawn)
Solution: F

Exercise: Called result for CC(C)(C)/N=c1/n(C(C)(C)C)oc(=O)n1C(C)(C)C
Solution: F

Exercise: Called result for Cn1nc(-c2ccccc2)c2c(/C=C/c3ccc(Cl)cc3)onc2c1=O
Solution: F

Exercise: Called result for N#CCCCCC12C3C(=O)N(c4ccccc4)C(=O)C3ON1O[C@@H]1C(=O)N(c3ccccc3)C(=O)[C@@H]12 (stereo partly drawn)
Solution: F

Exercise: Called result for COc1ccc(N2C(=O)/C(=C\c3cccc(Oc4ccccc4)c3)SC2c2ccccc2)cc1 (stereo not drawn)
Solution: F

Exercise: Called result for CCc1cccc(CC)c1NC(=O)C1=C(C)NC(C)=C(C(=O)Nc2c(CC)cccc2CC)C1c1ccc([N+](=O)[O-])cc1
Solution: F

Exercise: Called result for Cn1c(=O)c(C(=O)NC(=O)OCc2ccccc2)cn(CCSCCOC(=O)NCCCCCCNC(=O)OCCSCCn2cc(C(=O)NC(=O)OCc3ccccc3)c(=O)n(C)c2=O)c1=O
Solution: F

Exercise: Called result for COc1ccc(N2C(=O)/C(=C\c3cc(OC)c(OC)c(OC)c3)S(=O)(=O)C2c2ccccc2)cc1 (stereo not drawn)
Solution: F

Exercise: Called result for C/C=C/C(C#N)(/C=C/c1ccccc1)OP1(=O)OC(c2ccccc2)C(C)N1C (stereo not drawn)
Solution: F

Exercise: Called result for CC1(C)CC23C(=O)N(c4ccccc4)C(Nc4ccccc4)=NC2=CC(C#N)=C(C#N)C3O1 (stereo not drawn)
Solution: F

Exercise: Called result for CCCNC(=O)Nc1ccc2c(c1)Cc1cc(N(CCCl)CCCl)ccc1-2
Solution: F

Exercise: Called result for c1ccc2c(c1)ccc1cc3cc(NCCCCNc4ccc5nc6c(ccc7ccccc76)cc5c4)ccc3nc12
Solution: F

Exercise: Called result for N#C/C=C1\C=CC(O)C(O)C1OC1OC(CO)C(O)C(O)C1O (stereo not drawn)
Solution: F

---

# Tested on: Hs-578T
# ASSAY_NOTES: NCI tumour cell line growth inhibition, 48 h
The source made the active and inactive calls. Cut-off read from the data, not from the text of the source: active = GI50 up to about 1.1 µM and inactive = higher.
# GI50 values compiled below

Cc1[nH]c(-c2ccccc2)c(-c2ccc(Cl)cc2)c1C(=O)ONC(=O)c1ccccc1; 2.26 µM (inactive)
CC(C)(C)C1CC[C@H](O)[C@H]([C@@H](O)CC2CC(=O)N(c3ccccc3)C(=O)C2)C1 (some centres undefined); > 100 µM (inactive)
O=C(c1nsc(Cl)c1Cl)N1CCCCC1; > 100 µM (inactive)

Note: attention shifts to another entry.
Summary: Oc1c(Br)ccc2cccnc12 , Hs-578T, GI50 = 3.21 µM (inactive)

---

# Tested on: CAKI-1
# ASSAY_NOTES: NCI tumour cell line growth inhibition, 48 h
Activity calls are given as the source filed them. No stated cut-off is given here; in the data, active = GI50 up to about 1.1 µM and inactive = higher.
Please answer using one outcome listed in active, inactive

A selection of reference data follows.
CCCCOC(=O)C1C2CCC(O2)C1C(=O)OCCCC (stereo unspecified); inactive
O=C(c1nsc(Cl)c1Cl)N1CCCCC1; inactive
N#Cc1c(-c2ccccc2)cc(-c2cccs2)c(C#N)c1N; inactive
O=C(NCCCl)NCc1ccccc1; inactive
NC(=O)c1ccc(NS(=O)(=O)c2ccc(N)cc2)nc1; inactive

Then this compound:
Exercise: Called result for COCCOCOc1ccc(OCOCCOC)c2c1C(=O)c1ccccc1C2=O
Solution: inactive

---

# System: SW-620
# ASSAY_NOTES: NCI tumour cell line growth inhibition, 48 h
Activity calls are given as the source filed them. No stated cut-off is given here; in the data, active = GI50 up to about 1.1 µM and inactive = higher.
# GI50 values compiled below

Examples with answers:
O=C(c1nsc(Cl)c1Cl)N1CCCCC1; > 100 µM (inactive)
COc1ccc(C2C3=C(COC3=O)Oc3cc4c(cc32)OCO4)c(OC)c1 (configuration not stated); 5.81 µM (inactive)
O=C(Cc1ccccc1)N/N=C(/CCN1CCCC1)CC(c1ccccc1)c1c(O)c2ccccc2oc1=O (configuration not stated); > 100 µM (inactive)
C[C@@H]1OC(=O)C[C@H]2CC(=O)N(CCC3CN(S(=O)(=O)C(F)(F)F)c4ccc(Cc5ccc6c(c5)C(CCN5C[C@H]7[C@@H](CC(=O)O[C@H]7C)CC5=O)CN6S(=O)(=O)C(F)(F)F)cc43)C[C@@H]21 (some centres not stated); > 100 µM (inactive)
CC(C)(C)/N=c1/n(C(C)(C)C)oc(=O)n1C(C)(C)C; > 100 µM (inactive)

So for OCC(O)C(O)C(O)C(O)c1nc2cc(Cl)ccc2[nH]1 (configuration not stated) , the logged GI50 turned out to be > 100 µM (inactive)

So for CC(=O)OC12c3ccccc3C(c3ccccc31)C1C(=O)N(c3ccccc3O)C(=O)C12 (configuration not stated) , the logged GI50 turned out to be > 100 µM (inactive)
